molecules and their reported pIC50
# Tested on: HL-60
# test_details: Cytotoxicity against human HL60 cells after 48 hrs by MTT assay
# Type: functional, cell-based
# run_parameters: HL-60, 48 h
pIC50: −log10 of the molar value.
endpoint_name: pIC50

{"smiles_entry": "O=C(O)CN1C(=O)/C(=C/c2nc3cc(F)ccc3n2Cc2ccccc2F)SC1=S", "inequality_symbol": "<", "observed_measurement": 4.30}
{"smiles_entry": "CC[C@@]1(O)C(=O)OCc2c1cc1n(c2=O)Cc2cc3ccccc3nc2-1", "inequality_symbol": "=", "observed_measurement": 6.38}
{"smiles_entry": "O=C(O)CN1C(=O)/C(=C/c2nc3ccccc3n2Cc2ccccc2F)SC1=S", "inequality_symbol": "=", "observed_measurement": 6.68}
{"smiles_entry": "COc1ccc2c(c1)nc(/C=C1\\SC(=S)N(CC(=O)O)C1=O)n2Cc1ccccc1F", "inequality_symbol": "=", "observed_measurement": 5.47}
{"smiles_entry": "Cc1ccc(Cn2c(/C=C3\\SC(=S)N(CC(=O)O)C3=O)nc3cc(F)ccc32)cc1", "inequality_symbol": "=", "observed_measurement": 5.93}
{"smiles_entry": "Cc1ccc(C(=O)Cn2c(/C=C3\\SC(=S)N(CC(=O)O)C3=O)nc3ccccc32)cc1", "inequality_symbol": "=", "observed_measurement": 4.80}
{"smiles_entry": "O=C(O)CN1C(=O)/C(=C/c2nc3ccccc3n2CC(=O)c2ccc(F)cc2)SC1=S", "inequality_symbol": "=", "observed_measurement": 5.40}
{"smiles_entry": "COc1cc(Cn2c(/C=C3\\SC(=S)N(CC(=O)O)C3=O)nc3ccccc32)cc(OC)c1", "inequality_symbol": "=", "observed_measurement": 5.85}
{"smiles_entry": "O=C(O)CN1C(=O)/C(=C/c2nc3ccccc3n2Cc2ccc(F)cc2)SC1=S", "inequality_symbol": "=", "observed_measurement": 5.85}
{"smiles_entry": "O=C1NC(=S)S/C1=C\\c1nc2ccccc2n1Cc1ccccc1F", "inequality_symbol": "=", "observed_measurement": 5.07}
{"smiles_entry": "Cc1ccc(Cn2c(/C=C3\\SC(=S)N(CCC(=O)O)C3=O)nc3ccccc32)cc1", "inequality_symbol": "=", "observed_measurement": 5.38}
{"smiles_entry": "O=C(O)CN1C(=O)/C(=C/c2nc3ccccc3n2Cc2ccc([N+](=O)[O-])cc2)SC1=S", "inequality_symbol": "=", "observed_measurement": 5.27}
{"smiles_entry": "O=C(O)CN1C(=O)/C(=C/c2nc3ccc(Cl)cc3n2Cc2ccccc2F)SC1=S", "inequality_symbol": "=", "observed_measurement": 5.28}
{"smiles_entry": "O=C(O)CN1C(=O)/C(=C/c2nc3ccc(F)cc3n2Cc2ccccc2F)SC1=S", "inequality_symbol": "=", "observed_measurement": 5.28}
{"smiles_entry": "Cc1ccc(Cn2c(/C=C3\\SC(=S)N(CC(=O)O)C3=O)nc3ccccc32)cc1", "inequality_symbol": "=", "observed_measurement": 6.27}

====

# Tested on: HL-60
# test_details: Cytotoxicity against human HL60 cells after 48 hrs by MTT assay
# Assay type: functional, cell-based
# run_parameters: HL-60, 48 h

{"smiles_entry": "O=C(O)CN1C(=O)/C(=C/c2nc3ccccc3n2Cc2ccccc2)SC1=S", "IC50": "0.96 µM"}
{"smiles_entry": "COc1ccc(C(=O)Cn2c(/C=C3\\SC(=S)N(CC(=O)O)C3=O)nc3ccccc32)cc1", "IC50": "5.44 µM"}
{"smiles_entry": "N#Cc1ccc(Cn2c(/C=C3\\SC(=S)N(CC(=O)O)C3=O)nc3ccccc32)cc1", "IC50": "7.64 µM"}
{"smiles_entry": "COc1ccc2nc(/C=C3\\SC(=S)N(CC(=O)O)C3=O)n(Cc3ccccc3F)c2c1", "IC50": "6.44 µM"}
{"smiles_entry": "O=C(O)CN1C(=O)/C(=C/c2nc3ccccc3n2Cc2ccc(Br)cc2)SC1=S", "IC50": "0.87 µM"}
